target: FGFR2 (Homo sapiens); construct: made in house; host or cells: E. coli host derived from BL21, infected with T7 phage; test: Kinase binding assay (Kd), FGFR2; conditions: 11-point 3-fold dilution, qPCR readout
Sequence (P21802 22-821): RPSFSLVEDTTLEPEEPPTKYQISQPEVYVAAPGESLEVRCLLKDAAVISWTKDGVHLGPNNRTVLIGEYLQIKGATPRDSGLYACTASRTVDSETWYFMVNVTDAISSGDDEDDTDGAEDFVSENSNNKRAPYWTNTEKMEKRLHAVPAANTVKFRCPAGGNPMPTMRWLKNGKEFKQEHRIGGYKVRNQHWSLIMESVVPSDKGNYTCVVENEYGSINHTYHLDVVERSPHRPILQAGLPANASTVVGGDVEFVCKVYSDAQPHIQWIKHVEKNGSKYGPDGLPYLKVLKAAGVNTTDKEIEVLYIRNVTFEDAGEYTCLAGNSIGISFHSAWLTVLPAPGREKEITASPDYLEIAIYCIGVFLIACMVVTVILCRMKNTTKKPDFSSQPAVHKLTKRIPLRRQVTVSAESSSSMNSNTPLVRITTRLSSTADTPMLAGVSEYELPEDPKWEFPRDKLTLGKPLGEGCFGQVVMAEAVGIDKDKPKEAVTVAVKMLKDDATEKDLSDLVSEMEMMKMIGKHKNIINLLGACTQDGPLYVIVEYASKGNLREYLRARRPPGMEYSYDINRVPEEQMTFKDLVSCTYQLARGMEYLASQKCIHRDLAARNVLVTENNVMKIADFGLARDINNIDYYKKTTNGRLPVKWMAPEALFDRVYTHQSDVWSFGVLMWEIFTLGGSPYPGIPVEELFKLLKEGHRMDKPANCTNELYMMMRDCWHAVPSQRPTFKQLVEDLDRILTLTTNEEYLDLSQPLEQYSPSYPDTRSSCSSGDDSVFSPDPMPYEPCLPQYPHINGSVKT
Sorting guide: entries reporting Kd beneath 100 nM go in the True pile, the rest go in the False pile.

Some solved cases for reference:
CN1CCS(=O)(=Nc2ccc(Nc3nccc(-n4ccc5ccccc54)n3)cc2)CC1 [Example 16] : False
CS(C)(=O)=Nc1ccc(Nc2nccc(-n3ccc4ccccc43)n2)cc1 [Example 13] : False
CS(C)(=O)=Nc1ccc(Nc2nccc(-c3c[nH]c4ccccc34)n2)cc1 [Example 10] : False

Q. Does COc1ccc2c(-c3nc(Nc4ccc(N=S(C)(C)=O)cc4)ncc3C)c[nH]c2c1 [Example 30] have Kd strictly under 100 nM?
A. True

* * *

test system: UM-UC-14 cells (Bladder Cancer, FGFR3(S249C)); assay: Cancer cell line cell viability assay, UM-UC-14; format: cell-based; settings: UMUC14; 72 hours, Cell Titer-Glo 2.0; read-out: Cancer Cell Viability Assays UM-UC-14 (IC50 nM)
Recorded IC50 for the following compounds
Numeric answer only, unit nM assumed.

Past entries and their recorded results:
C=CC(=O)Nc1ccc2c(ccn2-c2nc(Nc3ccc(N=S(C)(C)=O)cc3)ncc2Cl)c1 [Example 66] : 34
C=CC(=O)Nc1ccc2c(c1)c(C)cn2-c1nc(Nc2ccc(N=S(C)(C)=O)c(F)c2)ncc1C#N [Example 62] : 152
C=CC(=O)Nc1ccc2c(ccn2-c2nc(Nc3ccc(S(C)(=N)=O)cc3)ncc2Cl)c1 (centres unmarked) [Example 70] : 34

Q. Give recorded IC50. C=CC(=O)Nc1ccc2c(c1)c(C)cn2-c1nc(Nc2ccc(N=S(C)(C)=O)c(F)c2)ncc1Cl [Example 60]
A. 6

Q. Give recorded IC50. C=CC(=O)Nc1ccc2c(c1)c(C)cn2-c1nc(Nc2ccc(N=S(C)(C)=O)c(F)c2)ncc1C [Example 63]
A. 3

Q. Give recorded IC50. C=CC(=O)Nc1ccc2c(-c3nc(Nc4ccc(N=S(C)(C)=O)cc4)ncc3Cl)cn(C)c2c1 [Example 92]
A. 10

Q. Give recorded IC50. C=CC(=O)Nc1ccc2c(c1)c(C)cn2-c1nc(Nc2ccc(N=S(C)(C)=O)cc2)ncc1Cl [Example 61]
A. 12

Q. Give recorded IC50. C=CC(=O)Nc1ccc2c(c1)c(C)cn2-c1nc(Nc2ccc(N=S(C)(C)=O)c(OC)c2)ncc1Cl [Example 64]
A. 3

* * *

target: FGFR3 (V555M) (Homo sapiens, UniProt P22607, V555M); construct: made in house; host or cells: E. coli host derived from BL21, infected with T7 phage; test: Kinase binding assay (Kd), FGFR3 (V555M); conditions: 11-point 3-fold dilution, qPCR readout
Sequence (P22607 23-806 V555M): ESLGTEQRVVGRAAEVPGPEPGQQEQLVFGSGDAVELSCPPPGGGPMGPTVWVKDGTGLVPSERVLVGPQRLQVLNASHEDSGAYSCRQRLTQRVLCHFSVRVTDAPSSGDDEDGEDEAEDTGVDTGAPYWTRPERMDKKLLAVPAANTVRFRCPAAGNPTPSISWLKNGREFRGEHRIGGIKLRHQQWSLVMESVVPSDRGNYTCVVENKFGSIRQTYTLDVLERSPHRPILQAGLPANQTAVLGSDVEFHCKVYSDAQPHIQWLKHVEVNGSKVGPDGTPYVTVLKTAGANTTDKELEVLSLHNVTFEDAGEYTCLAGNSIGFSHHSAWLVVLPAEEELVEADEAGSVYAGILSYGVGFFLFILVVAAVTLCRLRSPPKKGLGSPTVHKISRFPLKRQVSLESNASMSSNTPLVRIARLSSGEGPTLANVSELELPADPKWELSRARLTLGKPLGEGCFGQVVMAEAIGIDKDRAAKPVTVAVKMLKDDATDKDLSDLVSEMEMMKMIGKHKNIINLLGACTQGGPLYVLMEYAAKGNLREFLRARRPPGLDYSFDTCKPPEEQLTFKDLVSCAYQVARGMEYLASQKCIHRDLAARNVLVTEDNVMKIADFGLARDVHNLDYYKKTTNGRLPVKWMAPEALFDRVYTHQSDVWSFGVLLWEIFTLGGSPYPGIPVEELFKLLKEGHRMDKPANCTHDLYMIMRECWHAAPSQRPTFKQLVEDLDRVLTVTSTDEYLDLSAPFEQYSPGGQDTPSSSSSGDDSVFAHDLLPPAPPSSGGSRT
Endpoint: log10 of Kd (log10 of the value in nM)
# values: log10(Kd), units nM

Past entries and their recorded results:
COc1c(N=S(C)(C)=O)cccc1Nc1ncc(Cl)c(-c2c[nH]c3ccccc23)n1 : 2.62
CS(C)(=O)=Nc1ccc(Nc2ncc(Cl)c(-n3ccc4cc(NC(=O)C5CC5)ccc43)n2)cc1 : 1.36
CS(C)(=O)=Nc1ccc(Nc2nccc(-n3ccc4ccccc43)n2)c(N)c1 : 4.08
CS(=N)(=O)c1ccc(Nc2ncc(Cl)c(-c3c[nH]c4ccccc34)n2)cc1 (stereo not shown) : 0.78
COc1cc(S(C)(=N)=O)ccc1Nc1ncc(C)c(-n2ccc3ccccc32)n1 (stereo not shown) : 2.04
Cc1cnc(Nc2ccc(N=S(C)(C)=O)nc2)nc1-c1c[nH]c2ccccc12 : 0.00
Cc1ccc2c(-c3nc(Nc4ccc(N=S(C)(C)=O)cc4)ncc3C)c[nH]c2c1 : 0.60
C=CC(=O)Nc1ccc2c(c1)c(C)cn2-c1nc(Nc2ccc(N=S(C)(C)=O)c(F)c2)ncc1C : 0.00

Q. Give recorded log10 of Kd. C=CC(=O)Nc1ccc2c(ccn2-c2nc(Nc3ccc(N=S(C)(C)=O)cc3)ncc2Cl)c1
A. 0.72

Q. Give recorded log10 of Kd. C=CC(=O)Nc1ccc2c(ccn2-c2nc(Nc3ccc(N4CCS(=N)(=O)CC4)cc3)ncc2Cl)c1
A. 0.76

Q. Give recorded log10 of Kd. C=CC(=O)Nc1ccc2c(ccn2-c2nc(Nc3ccc(S(C)(=N)=O)cc3OC)ncc2C)c1 (stereo not shown)
A. 2.58

Q. Give recorded log10 of Kd. CCOc1cc(N=S(C)(C)=O)ccc1Nc1ncc(Cl)c(-c2c[nH]c3ccccc23)n1
A. 1.72

Q. Give recorded log10 of Kd. N=S1(=O)CCN(c2ccc(Nc3ncc(F)c(-c4c[nH]c5ccccc45)n3)cc2)CC1
A. 0.85

Q. Give recorded log10 of Kd. Cc1cnc(Nc2ccc(S(=N)(=O)C3CC3)cc2)nc1-c1c[nH]c2ccccc12 (stereo not shown)
A. 0.48

Q. Give recorded log10 of Kd. CS(C)(=O)=Nc1ccc(Nc2ncc(Cl)c(-n3ccc4c(NC(=O)C5CC5)cccc43)n2)cc1
A. 0.70

Q. Give recorded log10 of Kd. Cc1cc(Nc2ncc(C)c(-c3c[nH]c4ccccc34)n2)ccc1N=S(C)(C)=O
A. 0.00

* * *

target: FGFR3 (Homo sapiens, UniProt P22607); construct: made in house; host or cells: E. coli host derived from BL21, infected with T7 phage; assay: Kinase binding assay (Kd), FGFR3; details: 11-point 3-fold dilution, qPCR readout
Sequence (P22607 23-806): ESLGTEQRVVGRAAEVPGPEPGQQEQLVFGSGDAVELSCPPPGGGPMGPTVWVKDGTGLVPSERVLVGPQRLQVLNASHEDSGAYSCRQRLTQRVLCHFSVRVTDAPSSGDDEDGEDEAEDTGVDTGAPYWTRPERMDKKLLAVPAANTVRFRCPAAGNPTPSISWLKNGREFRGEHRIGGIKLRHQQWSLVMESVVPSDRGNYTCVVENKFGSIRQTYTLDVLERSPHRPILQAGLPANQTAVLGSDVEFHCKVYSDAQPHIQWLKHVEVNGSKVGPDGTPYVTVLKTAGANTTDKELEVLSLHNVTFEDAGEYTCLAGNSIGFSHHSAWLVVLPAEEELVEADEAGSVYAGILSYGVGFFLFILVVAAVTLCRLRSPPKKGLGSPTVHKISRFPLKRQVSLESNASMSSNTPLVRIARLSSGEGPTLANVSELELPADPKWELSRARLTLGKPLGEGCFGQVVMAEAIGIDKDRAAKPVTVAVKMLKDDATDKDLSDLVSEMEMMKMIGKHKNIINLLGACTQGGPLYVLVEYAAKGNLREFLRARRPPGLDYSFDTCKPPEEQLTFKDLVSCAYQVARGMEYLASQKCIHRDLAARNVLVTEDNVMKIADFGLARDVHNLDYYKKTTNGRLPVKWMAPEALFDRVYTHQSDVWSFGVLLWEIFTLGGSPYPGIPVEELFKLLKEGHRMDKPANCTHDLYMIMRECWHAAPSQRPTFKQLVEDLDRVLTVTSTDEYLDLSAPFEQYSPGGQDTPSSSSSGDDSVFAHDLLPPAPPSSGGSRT
Sorting guide: entries reporting Kd beneath 200 nM go in the MET pile, the rest go in the NOT MET pile.

C=CC(=O)Nc1ccc2c(ccn2-c2nc(Nc3ccc(S(C)(=N)=O)cc3OC)ncc2Cl)c1 (centres unmarked) [Example 71] : NOT MET

Q. Does Cn1cc(-c2nc(Nc3ccc(S(=N)(=O)C4CC4)cc3)ncc2Cl)c2ccccc21 (centres unmarked) have Kd strictly under 200 nM?
A. MET

* * *

molecular target: FGFR2 (Homo sapiens); construct: made in house; host or cells: E. coli host derived from BL21, infected with T7 phage; test: Kinase binding assay (Kd), FGFR2; settings: 11-point 3-fold dilution, qPCR readout
Endpoint: Kd (nM)
Numeric answer only, unit nM assumed.

Past entries and their recorded results:
CS(C)(=O)=Nc1ccc(Nc2ncc(Cl)c(-n3ccc4c(NC(=O)C5CC5)cccc43)n2)cc1 : 290
Cc1cnc(Nc2ccc(N=S(C)(C)=O)cc2)nc1-c1c[nH]c2ccccc12 : 3300
COc1ccc(N=S(C)(C)=O)cc1Nc1ncc(Cl)c(-c2c[nH]c3ccccc23)n1 : 1700

Let us examine a further case.
Q. Give recorded Kd. N=S1(=O)CCN(c2ccc(Nc3ncc(F)c(-c4c[nH]c5ccccc45)n3)cc2)CC1
A. 19

* * *

Target: FGFR3 (V555M) (Homo sapiens, UniProt P22607, V555M)
Construct: made in house; host or cells: E. coli host derived from BL21, infected with T7 phage
Assay: Kinase binding assay (Kd), FGFR3 (V555M)
Settings: 11-point 3-fold dilution, qPCR readout
Protocol: Kinase-tagged T7 phage strains were prepared in an E. coli host derived from the BL21 strain. E. coli were grown to log-phase and infected with T7 phage and incubated with shaking at 32° C. until lysis. The lysates were centrifuged and filtered to remove cell debris. […] Test compounds were prepared as 111X stocks in 100% DMSO. Kds were determined using an 11-point 3-fold compound dilution series with three DMSO control points. […] The kinase concentration in the eluates was measured by qPCR. […]
Field: class. Source value: Kd. Ranges: band A: < 3 nM; band B: ≥ 3 nM and < 10 nM; band C: ≥ 10 nM

Some solved cases for reference:
Cc1cnc(Nc2ccc(S(C)(=N)=O)cc2)nc1-c1c[nH]c2ccccc12 (stereo not shown) [Example 48] : band A
COc1cc(S(C)(=N)=O)ccc1Nc1nccc(-n2ccc3ccccc32)n1 (stereo not shown) [Example 43] : band C
CS(C)(=O)=Nc1ccc(Nc2ncc(Cl)c(-n3ncc4cc(N)ccc43)n2)cc1 [Example 87] : band C
Cc1cnc(Nc2ccc(N3CCS(=N)(=O)CC3)cc2)nc1-c1c[nH]c2ccccc12 [Example 54] : band A
N=S1(=O)CCN(c2ccc(Nc3ncc(Cl)c(-c4c[nH]c5ccccc45)n3)cc2)CC1 [Example 53] : band A
CS(C)(=O)=Nc1ccc(Nc2nccc(-n3ccc4ccccc43)n2)cc1 [Example 13] : band C

Q. Sort into band: CN=S(C)(=O)c1ccc(Nc2ncc(Cl)c(-c3c[nH]c4ccccc34)n2)c(OC)c1 (stereo not shown) [Example 37]
A. band C

Q. Sort into band: N=S(=O)(c1ccc(Nc2ncc(Cl)c(-c3c[nH]c4ccccc34)n2)cc1)C1CC1 (stereo not shown) [Example 47]
A. band B

Q. Sort into band: C=CC(=O)Nc1ccc2c(c1)c(C)cn2-c1nc(Nc2ccc(N=S(C)(C)=O)c(F)c2)ncc1C#N [Example 62]
A. band C

* * *

target: FGFR4 (Homo sapiens)
Sequence (P22455 22-802): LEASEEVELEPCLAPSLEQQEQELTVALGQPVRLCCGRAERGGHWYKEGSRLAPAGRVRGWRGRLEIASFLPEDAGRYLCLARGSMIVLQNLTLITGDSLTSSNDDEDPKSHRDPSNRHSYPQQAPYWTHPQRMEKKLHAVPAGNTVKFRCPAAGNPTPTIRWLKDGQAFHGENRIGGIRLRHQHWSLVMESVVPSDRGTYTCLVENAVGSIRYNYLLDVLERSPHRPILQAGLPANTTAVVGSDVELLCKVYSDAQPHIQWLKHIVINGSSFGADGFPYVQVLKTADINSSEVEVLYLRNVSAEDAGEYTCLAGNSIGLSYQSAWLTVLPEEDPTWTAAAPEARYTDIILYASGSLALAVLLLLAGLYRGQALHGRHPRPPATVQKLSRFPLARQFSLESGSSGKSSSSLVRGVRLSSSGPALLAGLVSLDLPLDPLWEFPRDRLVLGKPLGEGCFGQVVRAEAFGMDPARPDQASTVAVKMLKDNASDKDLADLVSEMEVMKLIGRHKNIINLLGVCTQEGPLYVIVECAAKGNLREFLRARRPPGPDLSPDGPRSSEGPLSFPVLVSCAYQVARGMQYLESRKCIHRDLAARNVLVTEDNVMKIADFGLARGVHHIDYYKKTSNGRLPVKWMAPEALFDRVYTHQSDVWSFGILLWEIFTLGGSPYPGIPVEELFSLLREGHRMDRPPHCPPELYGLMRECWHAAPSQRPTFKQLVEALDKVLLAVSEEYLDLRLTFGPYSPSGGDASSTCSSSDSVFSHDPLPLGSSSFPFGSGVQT
Endpoint: Kd (nM)
Numeric answer only, unit nM assumed.

Past entries and their recorded results:
CCOc1cc(N=S(C)(C)=O)ccc1Nc1ncc(C)c(-c2c[nH]c3c(C)cccc23)n1 : 57
C=CC(=O)Nc1ccc2c(ccn2-c2nc(Nc3ccc(S(C)(=N)=O)cc3OC)ncc2Cl)c1 (stereo not shown) : 3400
CCN1CCS(=O)(=Nc2ccc(Nc3ncc(Cl)c(-c4c[nH]c5ccccc45)n3)c(OC)c2)CC1 : 66
COc1cc(N2CCS(=N)(=O)CC2)ccc1Nc1ncc(Cl)c(-c2c[nH]c3ccccc23)n1 : 86
COc1cc(N=S2(=O)CCN(C)CC2)ccc1Nc1ncc(Cl)c(-c2c[nH]c3ccccc23)n1 : 26

Q. Give recorded Kd. COc1ccc2c(-c3nc(Nc4ccc(N=S(C)(C)=O)cc4)ncc3C)c[nH]c2c1
A. 190

Q. Give recorded Kd. CCOc1cc(N=S(C)(C)=O)ccc1Nc1ncc(Cl)c(-c2c[nH]c3ccccc23)n1
A. 39

Q. Give recorded Kd. CS(C)(=O)=Nc1ccc(Nc2ncc(Cl)c(-n3ncc4cc(N)ccc43)n2)cc1
A. 2400

Q. Give recorded Kd. C=CC(=O)Nc1cccc2c1ccn2-c1nc(Nc2ccc(N=S(C)(C)=O)cc2)ncc1Cl
A. 3000

Q. Give recorded Kd. Cc1cnc(Nc2ccc(N=S(C)(C)=O)c(Cl)c2)nc1-c1c[nH]c2ccccc12
A. 89

Q. Give recorded Kd. Cc1cnc(Nc2ccc(S(C)(=N)=O)cc2)nc1-c1c[nH]c2ccccc12 (stereo not shown)
A. 160

Q. Give recorded Kd. Cc1cnc(Nc2ccc(S(=N)(=O)C3CC3)cc2)nc1-c1c[nH]c2ccccc12 (stereo not shown)
A. 130

Q. Give recorded Kd. CS(C)(=O)=Nc1ccc(Nc2ncc(Cl)c(-n3ccc4cc(NC(=O)C5CC5)ccc43)n2)cc1
A. 5300
